SUBJECT OF TEST: Mitogen-activated protein kinase 1 (Mus musculus, UniProt P63085)
Sequence (P63085 whole entry): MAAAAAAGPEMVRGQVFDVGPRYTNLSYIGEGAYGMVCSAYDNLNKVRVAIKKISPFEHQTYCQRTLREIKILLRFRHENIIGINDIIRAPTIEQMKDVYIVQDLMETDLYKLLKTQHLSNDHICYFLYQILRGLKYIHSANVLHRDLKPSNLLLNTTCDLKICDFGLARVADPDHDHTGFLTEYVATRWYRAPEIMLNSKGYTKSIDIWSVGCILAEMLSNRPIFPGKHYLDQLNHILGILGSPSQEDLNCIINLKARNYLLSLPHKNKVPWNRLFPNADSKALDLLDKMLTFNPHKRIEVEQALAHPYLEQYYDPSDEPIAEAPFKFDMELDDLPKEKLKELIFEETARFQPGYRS
ASSAY INFO: IMAP Assay: Activated ERK2 activity was determined in the IMAP assay format.
VALUE TYPE: IC50

COC[C@@]1(C(=O)Nc2ccc3[nH]nc(-c4ccnc(C5CC5)c4)c3c2)CCN(CC(=O)N2CC=C(c3ccc(-c4ncccn4)cc3)CC2)C1 | 18.1 nM

Just for reference, ChEMBL document CHEMBL3638513 is where these values come from.
